- RUN_DESCRIPTION: self-splicing fitness, log relative to wild type (ln ratio); higher = more splicing; Tetrahymena group I intron in knt gene, E. coli kanamycin selection, DiMSum; sequences stand for … in CUCUCU…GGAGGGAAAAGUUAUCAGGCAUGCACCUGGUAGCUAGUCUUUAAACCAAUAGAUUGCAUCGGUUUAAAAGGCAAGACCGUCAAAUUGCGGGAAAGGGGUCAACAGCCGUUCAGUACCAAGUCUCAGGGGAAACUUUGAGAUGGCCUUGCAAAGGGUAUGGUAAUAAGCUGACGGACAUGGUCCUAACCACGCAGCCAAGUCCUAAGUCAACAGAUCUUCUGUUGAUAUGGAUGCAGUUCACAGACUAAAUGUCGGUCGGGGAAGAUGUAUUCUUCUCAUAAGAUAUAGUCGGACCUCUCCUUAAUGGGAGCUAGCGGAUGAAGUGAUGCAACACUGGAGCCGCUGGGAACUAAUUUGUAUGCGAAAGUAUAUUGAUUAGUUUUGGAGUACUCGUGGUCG;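 also: selection with 25 µg/mL kanamycin versus none on LB agar overnight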
- CONDITION_NOTES: 30 °C
Each record's self-splicing fitness (ln) is compared with low range = under -3, mid range = from -3 up to -2, high range = -2 and over to give its class.

Which bin, given its self-splicing fitness (ln), does "GGGUAGCAAUAUUACGGAGA" occupy?
low range

Which bin, given its self-splicing fitness (ln), does "GUCCAGCAAUAUUACGAUUG" occupy?
low range

Which bin, given its self-splicing fitness (ln), does "GAGAAGCAAUAUUACGUGAU" occupy?
high range

Which bin, given its self-splicing fitness (ln), does "UAAUAGCAAUAUUACGACCA" occupy?
high range

Which bin, given its self-splicing fitness (ln), does "UCACAGCAAUAUUACGGAGU" occupy?
low range

Which bin, given its self-splicing fitness (ln), does "UUAAAGCAAUAUUACGUUUU" occupy?
low range

Which bin, given its self-splicing fitness (ln), does "AACGAGCAAUAUUACGGUUU" occupy?
mid range

Which bin, given its self-splicing fitness (ln), does "AUGAAGCAAUAUUACGUUGC" occupy?
low range

Which bin, given its self-splicing fitness (ln), does "UGACAGCAAUAUUACGUGCA" occupy?
high range

Which bin, given its self-splicing fitness (ln), does "UGUGAGCAAUAUUACGUCAA" occupy?
low range

Which bin, given its self-splicing fitness (ln), does "CUAUAGCAAUAUUACGUGGC" occupy?
mid range

Which bin, given its self-splicing fitness (ln), does "UACUAGCAAUAUUACGUAAC" occupy?
mid range

Which bin, given its self-splicing fitness (ln), does "CGCUAGCAAUAUUACGGGGG" occupy?
mid range

Which bin, given its self-splicing fitness (ln), does "ACACAGCAAUAUUACGUUUG" occupy?
mid range

Which bin, given its self-splicing fitness (ln), does "ACUUAGCAAUAUUACGGGUA" occupy?
high range

Which bin, given its self-splicing fitness (ln), does "UAUCAGCAAUAUUACGAUCG" occupy?
high range

Which bin, given its self-splicing fitness (ln), does "AACCAGCAAUAUUACGGGUG" occupy?
high range

Which bin, given its self-splicing fitness (ln), does "GUCGAGCAAUAUUACGAAGU" occupy?
high range

Which bin, given its self-splicing fitness (ln), does "GGUUAGCAAUAUUACGCAUU" occupy?
high range

Which bin, given its self-splicing fitness (ln), does "AGAAAGCAAUAUUACGCCUG" occupy?
high range

Which bin, given its self-splicing fitness (ln), does "UUAAAGCAAUAUUACGCAGU" occupy?
low range

Which bin, given its self-splicing fitness (ln), does "UAAAAGCAAUAUUACGUGGG" occupy?
low range

Which bin, given its self-splicing fitness (ln), does "AGUCAGCAAUAUUACGGUCC" occupy?
high range

Which bin, given its self-splicing fitness (ln), does "GACCAGCAAUAUUACGAUUG" occupy?
mid range

Which bin, given its self-splicing fitness (ln), does "CAAAAGCAAUAUUACGUCCA" occupy?
high range

Which bin, given its self-splicing fitness (ln), does "CAUUAGCAAUAUUACGUGCU" occupy?
low range

Which bin, given its self-splicing fitness (ln), does "AGCAAGCAAUAUUACGCACA" occupy?
high range

Which bin, given its self-splicing fitness (ln), does "ACCUAGCAAUAUUACGCCAG" occupy?
high range

Which bin, given its self-splicing fitness (ln), does "GAGAAGCAAUAUUACGAUGA" occupy?
high range

Which bin, given its self-splicing fitness (ln), does "UUCGAGCAAUAUUACGGAGG" occupy?
low range
